Where do these numbers come from? They come from PubChem BioAssay (NCI).

Field: growth. Provide a value for each of the compounds that follow.
System: SK-MEL-28 melanoma
Measurement Protocol: NCI-60 one-dose screen, 48 h (100 = growth as untreated, 0 = no growth, -100 = all killed)
Assay Context: 10 µM unless noted
About 83,000 compounds went through this panel and 20% of them were active in at least one assay; those are over-represented in the sample as a whole.
Your answer is read as %, so omit the unit and give the number.

// growth value for `COc1ccc(Sc2[nH]c(C=O)c3ccccc23)cc1` : 81.9

// growth value for `C[C@@H]1C[C@H](N)C[C@H](c2ccncc2NC(=O)c2ccc(F)c(-c3c(F)cccc3F)n2)C1` : 12.2

// growth value for `N[C@@H](CO)C(=O)O` : 107

// growth value for `CCCCc1n(Cc2ccc3ccccc3n2)cc[n+]1Cc1ccc2ccccc2n1` : 16.1

// growth value for `CC1=NOCC(=O)N1` : 99.4

// growth value for `O=C1Nc2ccccc2/C1=C/c1c[nH]c2ccccc12` : 101

====

Field: growth. Provide a value for each of the compounds that follow.
Test system: CAKI-1 renal
Measurement Protocol: NCI-60 one-dose screen, 48 h (100 = growth as untreated, 0 = no growth, -100 = all killed)
Assay Context: 10 µM unless noted
This is part of a sample that, as a whole, favours compounds with a hit. Of some 83,000 tested, about 20% had one in any assay.
Your answer is read as %, so omit the unit and give the number.

Measured growth for this entry COC(=O)C1(C)COP(=O)(NC23CC4CC(CC(C4)C2)C3)OC1 (stereo not given) on CAKI-1 renal: 103

Measured growth for this entry Cc1ccc(C2CC(c3cccs3)=NN2c2ccc(S(N)(=O)=O)cc2)s1 (stereo not given) on CAKI-1 renal: 86.7

Measured growth for this entry COc1cc(NC(C)CCCN)c2ncccc2c1Sc1ccc(Cl)cc1 (stereo not given) on CAKI-1 renal: 50.2

Measured growth for this entry `O=C1/C(=C\c2cccn2Cc2ccc(Cl)cc2)c2ccccc2N1c1c(Cl)cccc1Cl` on CAKI-1 renal: 75

Measured growth for this entry `Nc1nonc1-c1nc2ccccc2n1Cc1ccc(F)cc1` on CAKI-1 renal: 35.9

Measured growth for this entry `CC(=O)Nc1nonc1-c1nc2ccccc2n1Cc1ccc(C(C)(C)C)cc1` on CAKI-1 renal: 69

Measured growth for this entry `Nc1ccc(N(O)/C=C2\C=CC=CC2=O)cc1N` on CAKI-1 renal: 100

Measured growth for this entry `COc1cccc(CC(C)=C(c2ccc(OCCCN(C)C)cc2)c2ccc(OCCCN(C)C)cc2)c1` on CAKI-1 renal: -97.7

Measured growth for this entry `CCOc1cccc(/C=N/NC(=O)Cc2ccc(Nc3ccnc(C(F)(F)F)c3)cc2)c1O` on CAKI-1 renal: 36.8

Measured growth for this entry `CN(C)c1ccc(/C=N/Nc2nnc3n2N=C(c2ccc(Cl)cc2)CS3)cc1` on CAKI-1 renal: 96.8

====

Tested on: TK-10 renal
Measurement Protocol: NCI-60 one-dose screen, 48 h (100 = growth as untreated, 0 = no growth, -100 = all killed)
Assay Context: 10 µM unless noted
Compounds without any hit were thinned out: in the full panel of roughly 83,000, 20% have a hit.
Recorded Endpoint: growth (%)
Your answer is read as %, so omit the unit and give the number.

// growth value for COc1ccc(C2C=C(c3ccc(Cl)cc3)N=C3SC=CN32)cc1 (stereo unspecified) : 118

// growth value for `Oc1ccc(Nc2ncnc3c2sc2ncccc23)cc1` : 59.7

// growth value for Nc1nc(N)c2c(n1)NC(c1sc(Cl)nc1Cl)CC(c1ccc3c(c1)OCO3)=N2 (stereo unspecified) : 50.6

// growth value for `FC(F)(F)c1ccc(/C=N/Nc2nnc3n2N=C(c2ccc(Cl)cc2)CS3)cc1` : 53.1

// growth value for `[O-]/[N+](=C\c1ccccc1)CC1(O)CCCCC1` : 103

// growth value for `O=c1[nH]c2cc(Cl)c(Cl)cc2o1` : 113

// growth value for `Nc1c(C(=O)c2ccc(Br)cc2)sc2nc3c(cc12)CCCC3` : 108

// growth value for `COc1cc(C)c2c(=O)c3c(oc2c1)C(=O)c1c(O)c(OC)cc(O)c1C3=O` : 23.8

// growth value for `COc1ccc(/C(=C\c2cc(OC)c(OC)c(OC)c2)C(=O)N2CCNCC2)cc1` : 94.6

// growth value for `COc1cc2nccc(Oc3ccc(NC(=O)C4(C(=O)Nc5ccc(F)cc5)CC4)cc3)c2cc1O` : 76.8

// growth value for COc1cc2c(cc1OC)C(=O)C(Br)CC2 (stereo unspecified) : 53.7

====

System: IGROV1 ovarian
Measurement Protocol: NCI-60 one-dose screen, 48 h
Assay Context: 10 µM unless noted
Compounds without any hit were thinned out: in the full panel of roughly 83,000, 20% have a hit. The source made the active and inactive calls. The calls were made as follows: active = growth percent below 10; inactive = the rest.
Parameter call: string, one of active, inactive

Prompt line: Name the outcome recorded for `O=C(Cc1ccc(Nc2ccnc(C(F)(F)F)c2)cc1)N/N=C/c1ccccc1O` in the assay.
Response line: inactive

Prompt line: Name the outcome recorded for `C/C(CC(=O)NNc1ccc([N+](=O)[O-])cc1)=N\Nc1ccc([N+](=O)[O-])cc1` in the assay.
Response line: inactive

Prompt line: Name the outcome recorded for `Cc1ccc(CSCc2ccc(C(=O)NC3CC3)o2)cc1` in the assay.
Response line: inactive

Prompt line: Name the outcome recorded for `CC(=O)c1ccc(-n2c(-c3cc(-c4ccsc4)n[nH]3)n[nH]c2=S)cc1` in the assay.
Response line: inactive

Prompt line: Name the outcome recorded for C#CC[C@@H]1C[C@]2(C)[C@H]3CC[C@@H]4[C@H]5C(C(=C)C)CC[C@]5(C(=O)NCCCN5CCN(CCCN)CC5)CC[C@@]4(C)[C@]3(C)CC[C@H]2C(C)(C)[C@H]1OC(C)=O (stereo not given in full) in the assay.
Response line: active

Prompt line: Name the outcome recorded for `COc1ccc(C(=O)c2c(N)nc3n2CCCC3)cc1OC` in the assay.
Response line: inactive

Prompt line: Name the outcome recorded for `COc1ccc(/C(=C\c2ccc3c(c2)OCO3)C(=O)Nc2nc3ccc(F)cc3s2)cc1OC` in the assay.
Response line: inactive

Prompt line: Name the outcome recorded for `COc1ccc(Sc2[nH]c(C=O)c3ccccc23)cc1` in the assay.
Response line: inactive

Prompt line: Name the outcome recorded for `CCOC(=O)c1sc2nc(-c3cc4ccccc4o3)cc(-c3ccc(Cl)cc3)c2c1N` in the assay.
Response line: inactive

Prompt line: Name the outcome recorded for COc1cc2c(cc1OC)C(=O)C(Br)CC2 (stereo not given) in the assay.
Response line: inactive

Prompt line: Name the outcome recorded for `COc1ccc(/C=C(/C(=O)N2CCN(c3ccccc3)CC2)c2cc(OC)c(OC)c(OC)c2)cc1N` in the assay.
Response line: inactive

Prompt line: Name the outcome recorded for `O=C(NNC(=S)Nc1ccccc1)c1ccc(Nc2ncnc3c2cnn3-c2cccc(Br)c2)cc1` in the assay.
Response line: inactive

Prompt line: Name the outcome recorded for COc1ccc(-c2nsc3c2NC(=O)CC3c2ccc3c(c2)OCO3)cc1 (stereo not given) in the assay.
Response line: inactive

Prompt line: Name the outcome recorded for `C=CCn1c(SCC(=O)Nc2ccc(C(=O)/C=C/c3ccc(Cl)cc3)cc2)nnc1-c1ccc(Cl)cc1` in the assay.
Response line: inactive

Prompt line: Name the outcome recorded for `COc1cc2c(cc1OCCCOc1cc3c(cc1OC)C(=O)N1CCC[C@H]1C=N3)C=CC(C)(C)O2` in the assay.
Response line: inactive

Prompt line: Name the outcome recorded for `N#Cc1ccc(NC(=O)Nc2nc3ccc(OC(F)(F)F)cc3s2)cc1` in the assay.
Response line: inactive

Prompt line: Name the outcome recorded for CC1(C)C2CCC(O)(C(=O)O)C1C2 (stereo not given) in the assay.
Response line: inactive

Prompt line: Name the outcome recorded for CC1=NC(c2ccc(Cl)cc2)C2=C(N1)/C(=C/c1ccc(Cl)cc1)CCC2 (stereo not given) in the assay.
Response line: inactive

Prompt line: Name the outcome recorded for `O=C(c1ccccc1)N(CCCCl)C(=O)N(CCCCl)C(=O)c1ccccc1` in the assay.
Response line: inactive

Prompt line: Name the outcome recorded for `FC(F)(F)C1=NNC(c2ccc3ccccc3c2)=NN1` in the assay.
Response line: inactive

====

Test system: SK-MEL-5 melanoma
Measurement Protocol: NCI-60 one-dose screen, 48 h (100 = growth as untreated, 0 = no growth, -100 = all killed)
Assay Context: 10 µM unless noted
Compounds without any hit were thinned out: in the full panel of roughly 83,000, 20% have a hit.
# label = yes (1) if growth < 80% else no (0)

Prompt line: Does `O=[N+]([O-])c1cc(F)c2cccnc2c1O` have growth strictly under 80%?
Response line: no (0)

Prompt line: Does `Cc1cc(N=Nc2ccc(-c3ccc(N=Nc4ccc(O)c(C(=O)O)c4)cc3)cc2)c(N)c(N=Nc2ccc(C(=O)O)cc2)c1N` have growth strictly under 80%?
Response line: no (0)

Prompt line: Does `COc1ccc(/C(=C\c2ccc3c(c2)OCO3)C(=O)Nc2nc3ccc(F)cc3s2)cc1OC` have growth strictly under 80%?
Response line: no (0)

Prompt line: Does `COc1ccc(/C=C(/C(=O)N2CCN(c3ccccc3)CC2)c2cc(OC)c(OC)c(OC)c2)cc1O` have growth strictly under 80%?
Response line: yes (1)

Prompt line: Does CCCCNCC(O)c1cc(-c2ccc(C(F)(F)F)cc2)nc(-c2ccc(C(F)(F)F)cc2)c1 (configuration not stated) have growth strictly under 80%?
Response line: yes (1)

Prompt line: Does `c1ccc2c(Cc3csc4ccccc34)csc2c1` have growth strictly under 80%?
Response line: no (0)

Prompt line: Does `CCN1CCN(Cc2ccc(NC(=O)c3nc4ccc5[nH]ncc5c4c4c3CCCC4)cc2C(F)(F)F)CC1` have growth strictly under 80%?
Response line: yes (1)

Prompt line: Does C#CC[C@@H]1C[C@]2(C)[C@H]3CC[C@@H]4[C@H]5C(C(=C)C)CC[C@]5(C(=O)NCCCN5CCN(CCCN)CC5)CC[C@@]4(C)[C@]3(C)CC[C@H]2C(C)(C)[C@H]1OC(C)=O (some centres not stated) have growth strictly under 80%?
Response line: no (0)

Prompt line: Does `Cc1ccccc1CNc1ncnc2[nH]ncc12` have growth strictly under 80%?
Response line: no (0)

Prompt line: Does `COc1ccc(NC(=O)c2ccc(C(F)(F)F)nc2Nc2ccc(Cl)cc2C)cc1Cl` have growth strictly under 80%?
Response line: yes (1)

Prompt line: Does COc1cc(C2CC(c3ccc(Nc4ccnc5cc(Cl)ccc45)cc3)=NN2c2ccccc2)cc(OC)c1OC (configuration not stated) have growth strictly under 80%?
Response line: yes (1)

Prompt line: Does `O=C(Nc1ccc(Br)cc1)Nc1ccccc1Cl` have growth strictly under 80%?
Response line: no (0)

Prompt line: Does `O=C(O)/C=C(\c1nc2ccc([N+](=O)[O-])cc2[nH]1)c1cc(Cl)ccc1O` have growth strictly under 80%?
Response line: yes (1)

Prompt line: Does Nc1nc(N)c2c(n1)NC(c1sc(Cl)nc1Cl)CC(c1ccc3c(c1)OCO3)=N2 (configuration not stated) have growth strictly under 80%?
Response line: yes (1)

Prompt line: Does COc1ccc2c(c1)N(CCO)C1=C(C(=O)OC1)C2c1cccc(Br)c1 (configuration not stated) have growth strictly under 80%?
Response line: yes (1)

Prompt line: Does `Cc1cc(NC(=O)c2ccc(N)cc2)ccc1N=Nc1ccc2cc(S(=O)(=O)O)cc(S(=O)(=O)O)c2c1` have growth strictly under 80%?
Response line: no (0)

Prompt line: Does `CCNS(=O)(=O)c1ccc(C)cc1` have growth strictly under 80%?
Response line: no (0)

Prompt line: Does `COc1cc(-c2nc(-c3nc4cc(C(=O)c5ccccc5)ccc4[nH]3)cc3c2[nH]c2ccccc23)cc(OC)c1OC` have growth strictly under 80%?
Response line: yes (1)

Prompt line: Does `COc1c(B(O)O)cccc1-c1nc2c(F)cc3n[nH]c(C)c3c2c2c1CCCC2` have growth strictly under 80%?
Response line: yes (1)

Prompt line: Does `NC(N)=N/N=C\c1cccc(OCc2ccccc2)c1` have growth strictly under 80%?
Response line: yes (1)

Prompt line: Does C#CC[C@@H]1C[C@]2(C)[C@H]3CC[C@@H]4[C@H]5C(C(=C)C)CC[C@]5(C(=O)NCCCCCCCCN)CC[C@@]4(C)[C@]3(C)CC[C@H]2C(C)(C)[C@H]1OC(C)=O (some centres not stated) have growth strictly under 80%?
Response line: no (0)

Prompt line: Does `O=C(Nc1ccc(OS(=O)(=O)c2ccc(F)cc2)cc1)C12CC3CC(CC(C3)C1)C2` have growth strictly under 80%?
Response line: yes (1)

Prompt line: Does `CN(C)c1ccc(C(c2ccccc2)c2ccc(N(C)C)cc2)cc1` have growth strictly under 80%?
Response line: no (0)

Prompt line: Does `Cc1nc2c(-c3cnc(N)nc3)nc(N3CCOCC3)nc2n1C(C)C` have growth strictly under 80%?
Response line: yes (1)

Prompt line: Does `CC1=NN(c2cccc(S(N)(=O)=O)c2)C(=O)C1` have growth strictly under 80%?
Response line: no (0)

Prompt line: Does `CCN(CC)CCCNc1cccc2c(C)cc(OC)nc12` have growth strictly under 80%?
Response line: no (0)

Prompt line: Does `O=C(/C=C/c1cn(-c2ccccc2)nc1-c1cccc(Nc2ccnc3cc(Cl)ccc23)c1)c1ccc2c(c1)OCO2` have growth strictly under 80%?
Response line: no (0)

Prompt line: Does `COC(=O)CNS(=O)(=O)c1ccc2c(c1)Cc1cc(S(=O)(=O)NCC(=O)OC)ccc1-2` have growth strictly under 80%?
Response line: no (0)

Prompt line: Does `COc1ccc(/C=c2\c(=O)n(-c3ccccc3)c3nn4c(=O)c(=O)[nH]nc4n23)cc1` have growth strictly under 80%?
Response line: no (0)

Prompt line: Does `COc1ccc(-c2nnc(SCC(=O)Nc3ccc(C(=O)/C=C/c4ccc(Cl)cc4)cc3)n2-c2ccccc2)cc1` have growth strictly under 80%?
Response line: no (0)

Prompt line: Does COC1CC(N)C2OC(c3ccccc3)OCC2O1 (configuration not stated) have growth strictly under 80%?
Response line: no (0)

Prompt line: Does `C=C(C)[C@@H]1CC[C@]2(C)[C@H](CC=C3[C@@H]4C[C@](C)(C(=O)N5CCN(C)CC5)CC[C@]4(C)CC[C@]32C)[C@@]1(C)CCC#N` have growth strictly under 80%?
Response line: yes (1)

Prompt line: Does `C/C(=N\NC(=S)N1CCCCC1)c1ccccn1` have growth strictly under 80%?
Response line: yes (1)

Prompt line: Does C#CC[C@@H]1C[C@]2(C)[C@H]3CC[C@@H]4[C@H]5C(C(=C)C)CC[C@]5(C(=O)NCCCCN)CC[C@@]4(C)[C@]3(C)CC[C@H]2C(C)(C)[C@H]1OC(C)=O (some centres not stated) have growth strictly under 80%?
Response line: no (0)

Prompt line: Does `CN1CCN(Cc2ccc(NC(=O)c3cnc(F)c(C#Cc4cnc(N)c5ncccc45)c3)cc2C(F)(F)F)CC1` have growth strictly under 80%?
Response line: yes (1)

Prompt line: Does `CCCCCCCCCCCCCCCCOc1ccc(S(=O)(=O)N(C)C)cc1[N+](=O)[O-]` have growth strictly under 80%?
Response line: no (0)
